# Tgt: HIV-1 protease (Q7S mutant form) (Human immunodeficiency virus type 1 group M subtype B, UniProt P04585, Q495S)
# Construct: made in house
# Procedure Summary: HIV-1 Protease RET assay
# Format: biochemical
# Experimental Conditions: Ki, unit inferred
# Description: Ki's for the inhibitors of HIV-1 protease were determined using a resonance energy transfer (RET) assay. […] This enzyme is first partially purified as inclusion bodies from cell lysate. […] The commercially available peptide substrate (Molecular Probes Cat. # H-2930) RE(EDANS)SQNYPIVQK(DABCYL)R is used to assess activity and Ki's. This peptide is cleaved quantitatively by HIV-1 Pr at the Tyr-Pro bond. […]
Value Type: log10(Ki) (log10 of the value in nM)

- COc1ccc(CNC(=O)C2N(C(=O)[C@@H](O)[C@H](Cc3ccccc3)NC(=O)OC(C)(C)C)CSC2(C)C)cc1 (some centres unmarked): 1.40
- Cc1ccc(C(=O)N[C@@H](Cc2ccccc2)[C@H](O)C(=O)N2CSC(C)(C)[C@H]2C(=O)NCc2ccco2)c(C)c1O: 0.30
- CCCCOC(=O)N[C@@H](Cc1ccccc1)[C@H](O)C(=O)N1CSC(C)(C)C1C(=O)NCc1ccccc1C (some centres unmarked): 0.88
- CC1(C)SCN(C(=O)[C@@H](O)[C@H](Cc2ccccc2)NC(=O)c2cccc3c2CCN3)[C@@H]1C(=O)N[C@@H]1CCOc2ccccc21: 0.87
- Cc1ccccc1CNC(=O)C1N(C(=O)[C@@H](O)[C@H](Cc2ccccc2)NC(=O)CSc2nccs2)CSC1(C)C (some centres unmarked): 0.84
- COc1cc2c(cc1OC)CN(C(=O)[C@H]1N(C(=O)[C@@H](O)[C@H](Cc3ccccc3)NC(=O)c3cccc(O)c3C)CSC1(C)C)CC2: 1.66
- CCN1CCc2c(C(=O)N[C@@H](Cc3ccccc3)[C@H](O)C(=O)N3CSC(C)(C)[C@H]3C(=O)NCc3ccccc3C)cccc21: 0.83
- Cc1ccccc1CNC(=O)[C@H]1N(C(=O)[C@@H](O)[C@H](Cc2ccccc2)NS(=O)(=O)c2ccccc2)CSC1(C)C: 2.18
- CC(C)=CC(=O)N[C@@H](Cc1ccccc1)[C@H](O)C(=O)N1CSC(C)(C)[C@H]1C(=O)NCc1ccccc1C: 0.79
- CC(C)(C)OC(=O)N[C@@H](Cc1ccccc1)[C@H](O)C(=O)N1CSC(C)(C)[C@H]1C(=O)NCc1ccccc1: 1.32
- Cc1ccccc1CNC(=O)C1N(C(=O)[C@@H](O)[C@H](CSc2ccccc2)NC(=O)c2cccc(O)c2C)CSC1(C)C (some centres unmarked) [drawing 969]: -0.60
- Cc1cccc(C)c1CNC(=O)[C@@H]1C[C@@H]2CCCC[C@@H]2CC1C(=O)[C@@H](O)[C@H](Cc1ccccc1)NC(=O)c1cccc(O)c1C (some centres unmarked): 1.92
- Cc1ccccc1CNC(=O)[C@H]1N(C(=O)[C@@H](O)[C@H](Cc2ccccc2)NC(=O)/C=C/c2ccco2)CSC1(C)C: 1.78

---

# Tgt: HIV-1 protease (Q7S mutant form) (Human immunodeficiency virus type 1 group M subtype B, UniProt P04585, Q495S)
# Construct: made in house
# Procedure Summary: HIV-1 Protease RET assay
# Assay type: biochemical
# Experimental Conditions: Ave. Ki (nM), RET assay, Q7S enzyme, Morrison tight binding fit
We begin with a simple list: items and their reported log10(Ki).
Value Type: log10(Ki) (log10 of the value in nM)

• Cc1c(O)cccc1C(=O)N[C@@H](Cc1ccccc1)[C@H](O)C(=O)N1CSC(C)(C)[C@H]1C(=O)NC[C@H]1CCCO1 = 0.74
• COc1ccc(CNC(=O)NC(Cc2ccccc2)C(O)C(=O)N2CSC(C)(C)[C@H]2C(=O)NCc2ccc(OC)cc2)cc1 (stereo partly shown) = 0.89
• Cc1ccccc1CNC(=O)[C@H]1N(C(=O)[C@@H](O)[C@H](Cc2ccccc2)NC(=O)NCc2cccc(C(F)(F)F)c2)CSC1(C)C = 1.91
• Cc1ccccc1CNC(=O)[C@H]1N(C(=O)[C@@H](O)[C@H](Cc2ccccc2)NC(=O)NCc2ccccc2)CSC1(C)C = 0.32
• COc1ccc(CNC(=O)[C@@H]2CC(F)(F)CN2C(=O)[C@@H](O)[C@H](Cc2ccccc2)NC(=O)c2cccc(O)c2C)cc1 = -0.23
• Cc1c(O)cccc1C(=O)N[C@@H](Cc1ccccc1)[C@H](O)C(=O)N1CC(F)(F)C[C@H]1C(=O)NCc1ccccc1Cl = 0.18
• Cc1c(O)cccc1C(=O)N[C@@H](Cc1ccccc1)[C@H](O)C(=O)N1CSC(C)(C)[C@H]1C(=O)NCC1CCOC1 (stereo partly shown) = 0.04
• Cc1ccccc1CNC(=O)[C@H]1N(C(=O)C(O)C(Cc2ccccc2)NC(=O)NCc2ccc(F)cc2F)CSC1(C)C (stereo in doubt) = 0.81
• CCCNC(=O)[C@H]1N(C(=O)[C@@H](O)[C@H](Cc2ccccc2)NC(=O)c2cccc3c2CCN3)CSC1(C)C = 0.04
• C#CCOC(=O)N[C@@H](Cc1ccccc1)[C@H](O)C(=O)N1CSC(C)(C)[C@H]1C(=O)NCc1c(F)cccc1F = 0.00
• C=CCOC(=O)N[C@@H](Cc1ccccc1)[C@H](O)C(=O)N1CSC(C)(C)[C@H]1C(=O)NCc1ccccc1C = -0.07
• C=CCOC(=O)N[C@@H](Cc1ccccc1)[C@H](O)C(=O)N1CSC(C)(C)[C@H]1C(=O)NCc1ccccc1Cl = 0.28
• CC1(C)SCN(C(=O)[C@@H](O)[C@H](Cc2ccccc2)NC(=O)c2cccc3c2CCN3)[C@@H]1C(=O)N[C@H]1CCc2ccccc21 = -0.89
• C#CCCC(=O)N[C@@H](Cc1ccccc1)[C@H](O)C(=O)N1CSC(C)(C)[C@H]1C(=O)NCc1ccccc1C = -0.25
• CC1(C)SCN(C(=O)[C@@H](O)[C@H](Cc2ccccc2)NC(=O)NCc2ccccc2C(F)(F)F)[C@@H]1C(=O)NCc1ccccc1C(F)(F)F = 2.08
• Cc1ccccc1CNC(=O)[C@H]1N(C(=O)[C@@H](O)[C@H](Cc2ccccc2)NC(=O)c2cccc3c2CCCN3)CSC1(C)C = -0.46
• Cc1c(O)cccc1C(=O)N[C@@H](Cc1ccccc1)[C@H](O)C(=O)N1CSC(C)(C)[C@H]1C(=O)NCc1cccc2ccccc12 = -0.30

meta.source: patent US7094909B2
